Target: T1, CD3 on primary human pan T cells (human, UniProt P07766 23-207)
T1 construct: on cells it stands in the TCR/CD3 complex; also called Pan T-cells (CD3-positive); endogenous CD3
T1 sequence (P07766 23-207 limits assumed): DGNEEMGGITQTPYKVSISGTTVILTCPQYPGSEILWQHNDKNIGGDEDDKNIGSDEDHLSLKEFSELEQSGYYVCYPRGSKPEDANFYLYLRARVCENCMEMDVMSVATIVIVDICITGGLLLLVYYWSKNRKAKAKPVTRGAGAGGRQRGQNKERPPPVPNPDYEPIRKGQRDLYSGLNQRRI
Test: flow cytometry, pan T-cells
Property: % Binding retained on T-cells, RT (fraction)
Report the figure in fraction without appending any unit label.

Look up and state reported % Binding retained on T-cells, RT for CD3B2081 (scFv) scFv: QVQLVQSGAEVKKPGSSVKVSCKASGYTFTRSTMHWVRQAPGQGLEWIGYINPSSAYTNYAQKFQGRVTLTADKSTSTAYMELSSLRSEDTAVYYCASPQVHYDYNGFPYWGQGTLVTVSSGGSEGKSSGSGSESKSTGGSEIVLTQSPATLSASPGERVTLSCSASSSVSYMNWYQQKPGQAPRRWIYDSSKLASGVPARFSGSGSGRDYTLTISSLEPEDFAVYYCQQWSRNPPTFGGGTKVEIK
1

Look up and state reported % Binding retained on T-cells, RT for CD3B2039 (scFv) scFv: QVQLVQSGAEVKKPGSSVKVSCKASGYTFTRSTMHWVKQAPGQGLEWMGYINPSSAYTNYAQKFQGRVTLTADKSTSTAYMELSSLRSEDTAVYYCASPQVHYDYNGFPYWGQGTLVTVSSGGSEGKSSGSGSESKSTGGSEIVLTQSPATLSASPGERVTLSCSASSSVSYMNWYQQKPGQSPRRWIYDSSKLASGVPARFSGSGSGRDYTLTISSLEPEDFAVYYCQQWSRNPPTFGGGTKVEIK
1

Source of measurements: patent US20250145711A1
